Each recorded value in this set is attributed to the supplement of paper PMC13207355.

tested on: E28 (patient-derived glioblastoma stem cells of classical subtype); assay: phenotypic distance (Euclidean, principal components) from DMSO controls (arbitrary units); higher = stronger morphological change; conditions: 1000 nM; exposure time: 72 h
Counter-ions that a name gives are not always drawn.
Kindly state phenotypic distance for each of the entries shown.
Numbers only.

Examples with answers:
INSERT INTO measurements (molecule, metric, value_observed) VALUES
  ('CC(C)C[C@H](NC(=O)CNC(=O)c1cc(Cl)ccc1Cl)B1OC(=O)C(CC(=O)O)(CC(=O)O)O1', 'phenotypic distance', 5.6),
  ('C=C[C@H]1CN2CC[C@H]1C[C@@H]2[C@@H](O)c1ccnc2ccc(OC)cc12 [Quinidine hydrochloride monohydrate]', 'phenotypic distance', 0.843),
  ('C[C@@H](O[C@H]1OCCN(Cc2n[nH]c(=O)[nH]2)[C@H]1c1ccc(F)cc1)c1cc(C(F)(F)F)cc(C(F)(F)F)c1 [Aprepitant]', 'phenotypic distance', 0.862);

// batch mode: one phenotypic distance value per listed entry
1. Cc1cc(Nc2cc(CN3CCOCC3)c3nc(C)c(Cc4ccc(Cl)cc4F)n3n2)n[nH]1
2. CC(=O)OC[C@H]1O[C@@H]([S-])[C@H](OC(C)=O)[C@@H](OC(C)=O)[C@@H]1OC(C)=O.CCP(CC)CC.[Au+]
3. O=C(Oc1cccc2cccnc12)c1ccccc1

1: 1.63; 2: 2.9; 3: 1.59

----------
Kindly state surviving fraction for each of the entries shown.
tested on: E21 (patient-derived glioblastoma stem cells of mesenchymal subtype); experiment: surviving fraction (nuclei count normalised to DMSO); higher = more cells surviving (less toxic); conditions: 37 nM; exposure time: 72 h
Structures can show the parent of a compound that is named as a salt.
One number for each entry.

Examples with answers:
INSERT INTO measurements (compound, metric, value_observed) VALUES
  ('CCOC(=O)OC(C)OC1=C(C(=O)Nc2ccccn2)N(C)S(=O)(=O)c2ccccc21 (configuration not stated) [Ampiroxicam]', 'surviving fraction', 0.953),
  ('O=C(CCBr)N1CCN(C(=O)CCBr)CC1 [Pipobroman]', 'surviving fraction', 1.01);

// batch mode: one surviving fraction value per listed entry
1. O=c1[nH]c(=O)n([C@H]2C[C@H](O)[C@@H](CO)O2)cc1I [Idoxuridine]
2. CC(C)NCC(O)c1cc(O)cc(O)c1 (configuration not stated) [Metaproterenol sulfate, orciprenaline sulfate]
3. COc1cccc2c1C(=O)c1c(O)c3c(c(O)c1C2=O)C[C@@](O)(C(=O)CO)C[C@@H]3O[C@H]1C[C@H](N)[C@H](O[C@@H]2CCCCO2)[C@H](C)O1 [Pirarubicin]
4. CC(C)C[C@H](NC(=O)[C@H](Cc1ccccc1)C[C@@H](O)[C@H](Cc1ccccc1)NC(=O)OC(C)(C)C)C(=O)N[C@@H](Cc1ccccc1)C(N)=O [L-685,458]
5. NC1CCN(c2nc3c(cc2F)c(=O)c(C(=O)O)cn3-c2ccc(F)cc2F)C1 (configuration not stated) [Tosufloxacin hydrochloride]

1: 1; 2: 1.01; 3: 0.194; 4: 0.95; 5: 1.02

----------
Kindly state surviving fraction for each of the entries shown.
test system: E28; test: surviving fraction (nuclei count normalised to DMSO); higher = more cells surviving (less toxic); conditions: 1000 nM; exposure time: 72 h
Counter-ions that a name gives are not always drawn.
Answers are plain numbers.

Examples with answers:
INSERT INTO measurements (compound, tested_target, metric, value_observed) VALUES
  ('Nc1ccn([C@@H]2O[C@H](CO)[C@@H](O)C2(F)F)c(=O)n1 [Gemcitabine HCl]', 'E28', 'surviving fraction', 0.361),
  ('CC(C)CC(=O)N[C@H](C(=O)N[C@H](C(=O)N[C@@H](CC(C)C)[C@@H](O)CC(=O)N[C@@H](C)C(=O)N[C@@H](CC(C)C)[C@@H](O)CC(=O)O)C(C)C)C(C)C', 'E28', 'surviving fraction', 0.989),
  ('Cc1ccc(/C=N/NC(=O)c2n[nH]c3c2CCCC3)cc1', 'E28', 'surviving fraction', 0.31),
  ('CC(C)(Oc1ccc(C2CC2(Cl)Cl)cc1)C(=O)O (configuration not stated) [Ciprofibrate]', 'E28', 'surviving fraction', 1.02),
  ('CC[C@@]1(O)C(=O)OCc2c1cc1n(c2=O)Cc2cc3c(CN(C)C)c(O)ccc3nc2-1', 'E28', 'surviving fraction', 0.288);

// batch mode: one surviving fraction value per listed entry
1. O=[N+]([O-])c1ccc2c(c1)S(=O)(=O)C=C2
2. O=C(CCBr)N1CCN(C(=O)CCBr)CC1
3. CCN1CCN(C(=O)Cc2ccc(Nc3ncc(F)c(Nc4ccc(C(=O)Nc5ccccc5Cl)cc4)n3)cc2)CC1
4. Cc1cc(/C=C/c2ccc3cc(N(C)C)ccc3[n+]2C)c(C)n1-c1ccccc1 [Pyrvinium pamoate]
5. CC(C)NCC(O)COc1cccc2ccccc12 (configuration not stated) [Propranolol hydrochloride]
6. CCOC(=O)OC(C)OC1=C(C(=O)Nc2ccccn2)N(C)S(=O)(=O)c2ccccc21 (configuration not stated)
7. CCC[C@@H]1C[C@@H](C(=O)N[C@@H]([C@H]2O[C@H](SC)[C@H](O)[C@@H](O)[C@H]2O)[C@@H](C)O)N(C)C1 [Lincomycin hydrochloride]
8. CO[C@H]1C(=O)[C@]2(C)[C@@H](OC)C[C@H]3OC[C@@]3(OC(C)=O)[C@H]2[C@H](OC(=O)c2ccccc2)[C@]2(O)C[C@H](OC(=O)[C@H](O)[C@@H](NC(=O)OC(C)(C)C)c3ccccc3)C(C)=C1C2(C)C

[0.0457, 0.931, 0.295, 0.106, 1.13, 1.08, 1.12, 0.412]

// batch mode: one surviving fraction value per listed entry
1. CCCCCCC[N+](CC)(CC)CCCCc1ccc(Cl)cc1 [Clofilium tosylate]
2. NCCCP(=O)(O)O

1. 1.05
2. 0.888

// batch mode: one surviving fraction value per listed entry
1. CNc1ccc2oc(C[C@H]3O[C@@]4(CC[C@H]3C)O[C@H]([C@H](C)C(=O)c3ccc[nH]3)[C@H](C)C[C@H]4C)nc2c1C(=O)O
2. c1ccc2c(c1)[I+]c1ccccc1-2 [Diphenyleneiodonium chloride]

[0.0896, 0.319]
